Target: Plasminogen (Homo sapiens)
Sequence (P00747 97-580 limits assumed): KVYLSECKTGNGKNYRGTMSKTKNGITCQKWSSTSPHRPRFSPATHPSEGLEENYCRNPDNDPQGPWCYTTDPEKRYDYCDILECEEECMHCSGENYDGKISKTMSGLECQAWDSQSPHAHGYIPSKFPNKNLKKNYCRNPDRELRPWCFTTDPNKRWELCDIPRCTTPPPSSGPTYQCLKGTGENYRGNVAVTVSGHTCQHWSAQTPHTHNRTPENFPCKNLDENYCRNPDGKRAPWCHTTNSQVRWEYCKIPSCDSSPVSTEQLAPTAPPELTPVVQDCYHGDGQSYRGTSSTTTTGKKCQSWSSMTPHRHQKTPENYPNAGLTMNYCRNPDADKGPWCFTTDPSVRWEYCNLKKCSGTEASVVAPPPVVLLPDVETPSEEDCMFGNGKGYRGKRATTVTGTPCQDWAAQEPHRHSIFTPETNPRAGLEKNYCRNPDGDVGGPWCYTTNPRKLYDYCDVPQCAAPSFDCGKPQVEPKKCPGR
Sequence (P00747 581-810 limits assumed): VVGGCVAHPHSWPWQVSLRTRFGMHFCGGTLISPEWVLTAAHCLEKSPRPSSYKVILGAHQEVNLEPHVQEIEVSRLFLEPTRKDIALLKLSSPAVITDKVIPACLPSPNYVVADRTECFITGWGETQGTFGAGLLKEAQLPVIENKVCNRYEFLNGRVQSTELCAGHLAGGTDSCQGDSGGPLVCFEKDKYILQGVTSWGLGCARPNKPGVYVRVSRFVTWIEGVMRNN
Assay: Inhibition of human plasmin using H-D-Val-Leu-Lys-AMC as substrate assessed as residual activity by fluorescence plate reader analysis
Numbered stars: 1 amine (or outer) side, 2 acyl side, 3 side chain; on linkers, the order of the positions; unused ones are H or OH. Bridge positions count the residues as written; N and C are the ends. Peptide text beside a SMILES is read from it. TBMB = c1c(C[*:1])cc(C[*:3])cc1C[*:2]
attribute measured: pKi
Lab note — pKi values are minus log10 of concentrations in M.

Example entries begin here.
- compound: "CC(C)C[C@H](NC(=O)[C@@H]1CCCN1C(=O)[C@H](CS)NC(=O)[C@@H]1CCCN1C(=O)[C@H](CCCNC(=N)N)NC(=O)CNC(=O)[C@H](Cc1cnc[nH]1)NC(=O)[C@H](CS)NC(=O)CN)C(=O)N[C@@H](CCC(N)=O)C(=O)N[C@@H](Cc1ccc(O)cc1)C(=O)N[C@@H](CS)C(=O)N[C@@H](CCCCN)C(=O)O (H-GCHGRPCPLQYCK-OH)"
  test target: "Plasminogen (Homo sapiens)"
  pKi: 4.85
- compound: "N=C(N)NCCC[C@H](NC(=O)CNC(=O)[C@H](CO)NC(=O)[C@H](CS)NC(=O)[C@@H](N)CO)C(=O)N[C@@H](CCCNC(=N)N)C(=O)N[C@@H](CS)C(=O)N1CCC[C@H]1C(=O)N1CCC[C@H]1C(=O)N[C@@H](CO)C(=O)N[C@@H](Cc1ccc(O)cc1)C(=O)N[C@@H](CS)C(=O)N[C@@H](CCCCN)C(=O)O [SCSGRRCPPSYCK] (H-SCSGRRCPPSYCK-OH)"
  test target: "Plasminogen (Homo sapiens)"
  pKi: 5.48

Can you share its pKi? I mean this compound: C[C@@H]1NC(=O)[C@@H]2CCCN2C(=O)[C@@H]2CCCN2C(=O)[C@@H]2CSCc3cc(cc(c3)CSC[C@H](NC(=O)[C@@H](N)CO)C(=O)NCC(=O)NCC(=O)N[C@@H](CCCNC(=N)N)C(=O)N3CCC[C@H]3C(=O)N2)CSC[C@@H](C(=O)NCC(N)=O)NC(=O)[C@H](Cc2ccc(O)cc2)NC1=O (H-SCGGRPCPPAYCG-NH2; linker 2-7-12 via TBMB) 5.37

I am curious: what pKi value has been reported for C[C@H](NC(=O)[C@@H]1CCCN1C(=O)[C@@H]1CCCN1C(=O)[C@H](CS)NC(=O)[C@@H]1CCCN1C(=O)[C@H](CCCN=C(N)N)NC(=O)CNC(=O)CNC(=O)[C@H](CS)NC(=O)[C@@H](N)CO)C(=O)N[C@@H](Cc1ccc(O)cc1)C(=O)N[C@@H](CS)C(=O)N[C@@H](CCCCN)C(=O)O (H-SCGGRPCPPAYCK-OH) ? 5.08

I'd like to know its pKi. The compound in question is C[C@H](NC(=O)[C@H](CC(N)=O)NC(=O)[C@H](CS)NC(=O)[C@@H](N)CCC(N)=O)C(=O)N[C@@H](CCCNC(=N)N)C(=O)N1CCC[C@H]1C(=O)N[C@@H](CS)C(=O)N1CCC[C@H]1C(=O)N[C@@H](CO)C(=O)N[C@@H](CO)C(=O)N[C@@H](Cc1ccc(O)cc1)C(=O)N[C@@H](CS)C(=O)N[C@@H](CCCNC(=N)N)C(=O)O (H-QCNARPCPSSYCR-OH) 3.93

* * *

Target: Coagulation factor XII (Homo sapiens, UniProt P00748)
Sequence (P00748 20-372 limits assumed): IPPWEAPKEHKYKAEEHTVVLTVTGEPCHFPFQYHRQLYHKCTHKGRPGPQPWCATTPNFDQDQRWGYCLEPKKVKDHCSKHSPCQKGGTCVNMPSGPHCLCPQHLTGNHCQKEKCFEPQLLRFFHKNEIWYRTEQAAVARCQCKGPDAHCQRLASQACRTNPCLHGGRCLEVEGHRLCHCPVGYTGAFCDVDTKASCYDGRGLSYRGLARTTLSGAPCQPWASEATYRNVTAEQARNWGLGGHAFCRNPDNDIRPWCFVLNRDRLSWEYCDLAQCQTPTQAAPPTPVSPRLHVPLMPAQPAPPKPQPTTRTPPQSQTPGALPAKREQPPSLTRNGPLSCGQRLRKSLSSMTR
Sequence (P00748 373-615 limits assumed): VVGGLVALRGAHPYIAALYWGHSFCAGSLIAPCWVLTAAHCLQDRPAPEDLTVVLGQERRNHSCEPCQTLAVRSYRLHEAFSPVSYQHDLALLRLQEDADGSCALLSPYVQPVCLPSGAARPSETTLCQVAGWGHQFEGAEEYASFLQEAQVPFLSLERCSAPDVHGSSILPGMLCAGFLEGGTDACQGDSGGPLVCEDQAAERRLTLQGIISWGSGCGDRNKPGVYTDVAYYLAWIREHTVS
Test: Inhibition of human biotinylated beta factor 12a expressed in Escherichia coli TG1 using Z-Gly-Gly-Arg-AMC as substrate assessed as residual activity by fluorometric analysis
Peptide text beside a SMILES is read from it.
attribute measured: pKi
Lab note: report pKi as minus log10 of the concentration in molar units, number only.

Some solved cases for reference:
- compound: "CC(C)C[C@H](NC(=O)[C@H](CS)NC(=O)[C@H](Cc1ccc(O)cc1)NC(=O)[C@@H](NC(=O)[C@H](CCC(N)=O)NC(=O)[C@@H]1CCCN1C(=O)[C@H](CS)NC(=O)[C@@H]1CCCN1C(=O)[C@H](CCCNC(=N)N)NC(=O)[C@H](C)NC(=O)[C@H](CC(=O)O)NC(=O)[C@H](CS)NC(=O)[C@H](C)N)[C@@H](C)O)C(=O)O (H-ACDARPCPQTYCL-OH)"
  test target: "Coagulation factor XII (Homo sapiens, UniProt P00748)"
  result: 4.69
- compound: "CC(C)C[C@H](NC(=O)[C@H](C)NC(=O)[C@H](CC(C)C)NC(=O)[C@@H]1CCCN1C(=O)[C@H](CS)NC(=O)[C@@H]1CCCN1C(=O)[C@H](CCCNC(=N)N)NC(=O)[C@H](C)NC(=O)[C@H](Cc1c[nH]c2ccccc12)NC(=O)[C@H](CS)NC(=O)CN)C(=O)N[C@@H](CS)C(=O)N[C@@H](CCC(N)=O)C(=O)O (H-GCWARPCPLALCQ-OH)"
  test target: "Coagulation factor XII (Homo sapiens, UniProt P00748)"
  result: 4.99

Now examine the next entry.
Find the recorded pKi belonging to CC(C)C[C@H](NC(=O)[C@@H]1CCCN1C(=O)[C@H](CS)NC(=O)[C@@H]1CCCN1C(=O)[C@H](CCCNC(=N)N)NC(=O)CNC(=O)[C@H](Cc1cnc[nH]1)NC(=O)[C@H](CS)NC(=O)CN)C(=O)N[C@@H](CCC(N)=O)C(=O)N[C@@H](Cc1ccc(O)cc1)C(=O)N[C@@H](CS)C(=O)N[C@@H](CCCCN)C(=O)O (H-GCHGRPCPLQYCK-OH) and report it. 4.95
